Assay: Neuroprotective activity against glutamate-induced cell death in rat PC12 cells assessed as cell viability at 0.1 uM after 24 hrs by MTT assay
Type: functional
Conditions: PC-12, 24 h, read-out: Activity
quantity-measured: viability at 0.1 µM
Your answer should be a number followed by the unit of measure.

**Query** Give a short answer stating reported viability at 0.1 µM for O=C(COc1ccc2ccccc2c1)N1CCN(C(c2ccc(Br)cc2)c2ccc(Br)cc2)CC1 .
**Result** 4.06%

**Query** Give a short answer stating reported viability at 0.1 µM for COc1ccccc1OCC(=O)N1CCN(C(c2ccc(Br)cc2)c2ccc(Br)cc2)CC1 .
**Result** 45.5%

**Query** Give a short answer stating reported viability at 0.1 µM for O=C(COc1ccc(Cl)cc1)N1CCN(C(c2ccc(Br)cc2)c2ccc(Br)cc2)CC1 .
**Result** 4.22%

**Query** Give a short answer stating reported viability at 0.1 µM for Cc1ccccc1OCC(=O)N1CCN(Cc2ccc(Br)cc2)CC1 .
**Result** 10.2%

**Query** Give a short answer stating reported viability at 0.1 µM for O=C(COc1ccc(Br)cc1)N1CCN(C(c2ccc(F)cc2)c2ccc(F)cc2)CC1 .
**Result** 26.8%

====

Tested on: PC-12
Experiment: Neuroprotective activity against glutamate-induced apoptosis in rat PC12 cells at 1 uM after 24 hrs by hoechst 33342 and propidium iodide double staining based fluorescence analysis (reference value: 43.97 +/- 2.69%)
Format: functional
Kindly state Activity for each of the entries shown.
Your answer should be a number followed by the unit of measure.

**Query** Give a short answer stating reported Activity for CCOc1ccccc1CN1CCN(C(=O)COc2ccc3ccccc3c2)CC1 .
**Result** 23.73%

**Query** Give a short answer stating reported Activity for COc1ccccc1OCC(=O)N1CCN(C(c2ccc(F)cc2)c2ccc(F)cc2)CC1 .
**Result** 31.04%

**Query** Give a short answer stating reported Activity for O=C(COc1ccc(Br)cc1)N1CCN(C(c2ccc(F)cc2)c2ccc(F)cc2)CC1 .
**Result** 32.18%

**Query** Give a short answer stating reported Activity for COC(=O)c1ccccc1CN1CCN(C(=O)COc2ccc3ccccc3c2)CC1 .
**Result** 29.27%

====

Experiment: Neuroprotective activity against glutamate-induced cell death in rat PC12 cells assessed as cell viability at 0.1 uM after 24 hrs by MTT assay
Format: functional
Settings: PC-12, 24 h, read-out: Activity
Dear colleague, classification is by viability at 0.1 µM, with ranges listed here: low bin = under 3%, mid bin = from 3% up to 6%, high bin = 6% and over

**Query** Class label required: COc1ccc(OCC(=O)N2CCN(C(c3ccc(F)cc3)c3ccc(F)cc3)CC2)cc1
**Result** mid bin

**Query** Class label required: COc1ccc(OCC(=O)N2CCN(C(c3ccc(Br)cc3)c3ccc(Br)cc3)CC2)cc1
**Result** mid bin

**Query** Class label required: COc1ccc(OCC(=O)N2CCN(C(c3ccc(C)cc3)c3ccc(C)cc3)CC2)cc1
**Result** high bin

**Query** Class label required: COc1ccc(C(c2ccc(OC)cc2)N2CCN(C(=O)COc3ccc4ccccc4c3)CC2)cc1
**Result** low bin

**Query** Class label required: COc1ccc(C(c2ccc(OC)cc2)N2CCN(C(=O)COc3ccccc3C)CC2)cc1
**Result** low bin

**Query** Class label required: COC(=O)c1ccccc1CN1CCN(C(=O)COc2ccccc2C)CC1
**Result** high bin

**Query** Class label required: Cc1ccc(C(c2ccc(C)cc2)N2CCN(C(=O)COc3ccc(Cl)cc3)CC2)cc1
**Result** mid bin

**Query** Class label required: Cc1ccc(C(c2ccc(C)cc2)N2CCN(C(=O)COc3ccccc3C)CC2)cc1
**Result** mid bin

**Query** Class label required: COC(=O)c1ccccc1CN1CCN(C(=O)COc2ccc3ccccc3c2)CC1
**Result** high bin

**Query** Class label required: CCOc1ccccc1CN1CCN(C(=O)COc2ccccc2C)CC1
**Result** high bin
